All figures here come from patent US20260069689A1.

Answer each item with its documented t½.
Molecular target: SARS-COV-2 RBD extracellular domain expressed with a C-terminal myc-myc-hexahistidine tag (SARS-COV-2 RBD-mmH) (SARS-CoV-2)
Experiment: SPR Biacore, mAb captured on anti-hFc, RBD-mmH analyte, 37 C
One number for each entry, in h.

binder	t½ (h)
mAb15170 (antibody, V domains shown) VH: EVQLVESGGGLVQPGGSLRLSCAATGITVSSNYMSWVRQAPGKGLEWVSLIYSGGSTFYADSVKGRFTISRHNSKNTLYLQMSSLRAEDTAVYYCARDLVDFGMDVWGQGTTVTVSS VL: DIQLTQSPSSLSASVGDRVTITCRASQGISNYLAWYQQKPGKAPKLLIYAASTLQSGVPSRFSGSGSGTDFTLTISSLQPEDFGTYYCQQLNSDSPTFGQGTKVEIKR	2.3

INPUT: State its t½: mAb15164 (antibody, V domains shown) VH: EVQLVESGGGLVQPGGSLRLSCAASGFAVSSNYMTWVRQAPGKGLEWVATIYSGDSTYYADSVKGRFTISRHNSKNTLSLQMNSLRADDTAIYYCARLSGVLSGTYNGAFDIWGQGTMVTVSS VL: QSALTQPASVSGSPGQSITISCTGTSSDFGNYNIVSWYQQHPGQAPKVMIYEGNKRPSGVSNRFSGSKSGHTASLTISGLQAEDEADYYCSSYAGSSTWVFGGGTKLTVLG
OUTPUT: 0.108
